TARGET_OF_ASSAY: human recombinant GPR65 (Homo sapiens, UniProt Q8IYL9)
Sequence (Q8IYL9 whole entry): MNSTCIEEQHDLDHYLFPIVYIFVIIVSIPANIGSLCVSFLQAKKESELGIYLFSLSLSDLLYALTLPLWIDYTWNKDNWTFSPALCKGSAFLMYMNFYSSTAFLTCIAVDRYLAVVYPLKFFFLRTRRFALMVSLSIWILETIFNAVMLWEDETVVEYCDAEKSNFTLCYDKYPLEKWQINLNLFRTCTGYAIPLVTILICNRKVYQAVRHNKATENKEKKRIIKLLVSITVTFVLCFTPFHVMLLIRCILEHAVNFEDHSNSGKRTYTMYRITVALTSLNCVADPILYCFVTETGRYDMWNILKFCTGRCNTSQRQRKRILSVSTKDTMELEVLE
TEST_SUMMARY: Human GPR65 cAMP HTRF antagonist assay
ASSAY_SETUP: 1321N1-hrGPR65 cells, assay pH 7.2, cAMP HTRF; read-out: hGPR65 IC50
Readings of IC50 for the listed compounds

SMILES_DATA: Cc1cc(NC(=O)N2[C@H]3CC[C@@H]2c2c[nH]c(=O)cc2C3)c(F)cc1-c1ccc(OCC(F)(F)F)nc1
TARGET_OF_ASSAY: human recombinant GPR65 (Homo sapiens, UniProt Q8IYL9)
MEASURED_ENDPOINT: IC50
VALUE: < 500 nM
--
SMILES_DATA: O=C(Nc1cc(Cl)c(-c2ccc(OC[C@H]3CC3(F)F)nc2)cc1F)N1[C@H]2CC[C@@H]1c1c[nH]c(=O)cc1C2
TARGET_OF_ASSAY: human recombinant GPR65 (Homo sapiens, UniProt Q8IYL9)
MEASURED_ENDPOINT: IC50
VALUE: < 500 nM

Here is another compound to look at.
Lab note: `CN(C(=O)C(F)(F)F)c1ccc(-c2cc(F)c(NC(=O)N3[C@H]4CC[C@@H]3c3c[nH]c(=O)cc3C4)cc2Cl)cn1` gave IC50 of 500 to 5000 nM

====

TARGET_OF_ASSAY: human recombinant GPR65 (Homo sapiens)
Construct: host or cells: 1321N1 human astrocytoma cells (1321N1-hrGPR65)
TEST_SUMMARY: Human GPR65 cAMP HTRF antagonist assay
Type: cell-based
ASSAY_SETUP: 1321N1-hrGPR65 cells, assay pH 7.2, cAMP HTRF; read-out: hGPR65 IC50
pIC50: −log10 of the molar value.
MEASURED_ENDPOINT: pIC50

Past entries and their recorded results:
MOLECULE: O=C(Nc1cc(Cl)c(Cl)cc1OCC1CC1(F)F)N1[C@H]2CC[C@@H]1c1n[nH]c(=O)cc1C2 (stereo partly shown) [Compound 88]
pIC50: < 5.30
--
MOLECULE: Cc1nc2cc(-c3cc(F)c(NC(=O)N4[C@H]5CC[C@@H]4c4c[nH]c(=O)cc4C5)cc3Cl)ccc2[nH]1 [Compound 68]
pIC50: 5.30 to 6.30
--
MOLECULE: O=C(Nc1cc(Cl)c(-c2ccc(OCC3CC3(F)F)nc2)cc1F)N1[C@H]2CC[C@@H]1c1ccnc(F)c1C2 (stereo partly shown) [Compound 14]
pIC50: > 6.30
--
MOLECULE: O=C(Nc1cc(Cl)c(-c2ccc(CC(F)(F)F)nc2)cc1F)N1[C@H]2CC[C@@H]1c1c[nH]c(=O)cc1C2 [Compound 40]
pIC50: > 6.30
--
MOLECULE: O=C(Nc1cc(Cl)c(COc2ccccc2)cc1F)N1[C@H]2CC[C@@H]1c1c[nH]c(=O)cc1C2 [Compound 53]
pIC50: > 6.30
--
MOLECULE: O=C(Nc1cc(Cl)c(Cl)cn1)N1[C@@H]2CC[C@H]1[C@@H](F)c1c2ccnc1F [Compound 42]
pIC50: > 6.30

Here is another molecule to look at.
Lab note: O=C(Nc1cc(Cl)c(COc2cccc(OCC(F)(F)F)n2)cc1F)N1[C@H]2CC[C@@H]1c1n[nH]c(=O)cc1C2 [Compound 56] gave pIC50 of > 6.30

====

TARGET_OF_ASSAY: human recombinant GPR65 (Homo sapiens, UniProt Q8IYL9)
Construct: host or cells: 1321N1 human astrocytoma cells (1321N1-hrGPR65)
TEST_SUMMARY: Human GPR65 cAMP HTRF antagonist assay
Format: cell-based
ASSAY_SETUP: 1321N1-hrGPR65 cells, assay pH 7.2, cAMP HTRF; read-out: hGPR65 IC50
MEASURED_ENDPOINT: IC50

Past entries and their recorded results:
COMPOUND: O=C(Nc1cc(Cl)c(COc2ccc(OCC(F)(F)F)cn2)cc1F)N1[C@H]2CC[C@@H]1c1c[nH]c(=O)cc1C2
IC50: < 500 nM

COMPOUND: O=C(Nc1cc(Cl)c(-c2ccc(OCC(F)(F)F)nc2)cc1F)N1[C@H]2CC[C@@H]1C(F)(F)c1c2ccnc1F
IC50: < 500 nM

COMPOUND: O=C(Nc1cc(Cl)c(-c2ccc(OC[C@@H]3CC3(F)F)nc2)cc1F)N1[C@H]2CC[C@@H]1c1c[nH]c(=O)cc1C2
IC50: < 500 nM

COMPOUND: COCCOCCO[C@H]1C[C@H](Oc2ccc(-c3cc(F)c(NC(=O)N4[C@H]5CC[C@@H]4c4c[nH]c(=O)cc4C5)cc3Cl)cn2)C1
IC50: < 500 nM

COMPOUND: O=C(Nc1cc(Cl)c(-c2ccc(OCC3CN(CC(F)(F)F)C3)nc2)cc1F)N1[C@H]2CC[C@@H]1c1c[nH]c(=O)cc1C2
IC50: < 500 nM

For the compound `O=C(Nc1cc(Cl)c(-c2ccc(OCC3CCC3)nc2)cc1F)N1[C@H]2CC[C@@H]1c1n[nH]c(=O)cc1C2` , the measured IC50 on human recombinant GPR65 (Homo sapiens, UniProt Q8IYL9) was < 500 nM

For the compound `CN(C(=O)N1[C@H]2CC[C@@H]1c1n[nH]c(=O)cc1C2)c1cc(Cl)c(-c2ccc(OCC(F)(F)F)nc2)cc1F` , the measured IC50 on human recombinant GPR65 (Homo sapiens, UniProt Q8IYL9) was 500 to 5000 nM

For the compound `O=C(Nc1ccc(Cl)cc1F)N1[C@H]2CC[C@@H]1c1ccnc(F)c1C2` , the measured IC50 on human recombinant GPR65 (Homo sapiens, UniProt Q8IYL9) was < 500 nM

For the compound `O=C(Nc1cc(Cl)c(Cl)cc1OCC1(F)CC1)N1[C@H]2CC[C@@H]1c1n[nH]c(=O)cc1C2` , the measured IC50 on human recombinant GPR65 (Homo sapiens, UniProt Q8IYL9) was > 5000 nM

For the compound `O=C(Nc1cc(Cl)c(NCc2ccc(OCC(F)(F)F)cn2)cc1F)N1[C@H]2CC[C@@H]1c1n[nH]c(=O)cc1C2` , the measured IC50 on human recombinant GPR65 (Homo sapiens, UniProt Q8IYL9) was 500 to 5000 nM

====

Readings of IC50 for the listed molecules
TARGET_OF_ASSAY: human recombinant GPR65 (Homo sapiens, UniProt Q8IYL9)
TEST_SUMMARY: Human GPR65 cAMP HTRF antagonist assay
ASSAY_SETUP: 1321N1-hrGPR65 cells, assay pH 7.2, cAMP HTRF; read-out: hGPR65 IC50
Description: The “Human GPR65 cyclic adenosine monophosphate (cAMP) Homogeneous Time Resolved Fluorescence (HTRF) antagonist assay”, or simply “cAMP assay”, as described in the accompanying examples, can be used to measure the potency of GPR65 modulators, which is expressed as the concentration of compound required to reduce the increase in cAMP concentration upon GPR65 activation by 50% (i.e. an IC50). […]

Past entries and their recorded results:
MOLECULE: O=C(Nc1cc(Cl)c(-c2ccc(OC3CCS(=O)(=O)CC3)nc2)cc1F)N1[C@H]2CC[C@@H]1c1n[nH]c(=O)cc1C2
TARGET_OF_ASSAY: human recombinant GPR65 (Homo sapiens, UniProt Q8IYL9)
VALUE: < 500 nM

MOLECULE: CN(CC(F)(F)F)c1ccnc(-c2cc(F)c(NC(=O)N3[C@H]4CC[C@@H]3c3c[nH]c(=O)cc3C4)cc2Cl)c1
TARGET_OF_ASSAY: human recombinant GPR65 (Homo sapiens, UniProt Q8IYL9)
VALUE: < 500 nM

MOLECULE: O=C(Nc1cc(Cl)c(-c2ccc3nonc3c2)cn1)N1[C@@H]2CC[C@H]1c1ccnc(F)c1[C@H]2F
TARGET_OF_ASSAY: human recombinant GPR65 (Homo sapiens, UniProt Q8IYL9)
VALUE: < 500 nM

MOLECULE: O=C(Nc1cc(Cl)c(-c2ccc(OCC3CNC3)nc2)cc1F)N1[C@H]2CC[C@@H]1c1c[nH]c(=O)cc1C2
TARGET_OF_ASSAY: human recombinant GPR65 (Homo sapiens, UniProt Q8IYL9)
VALUE: 500 to 5000 nM

MOLECULE: O=C(Nc1cc(Cl)c(C(F)(F)F)cn1)N1C2CCC1[C@H](F)c1c2ccnc1F (mixture of isomers)
TARGET_OF_ASSAY: human recombinant GPR65 (Homo sapiens, UniProt Q8IYL9)
VALUE: < 500 nM

MOLECULE: COCCOCCO[C@H]1C[C@@H](Oc2ccc(-c3cc(F)c(NC(=O)N4[C@H]5CC[C@@H]4c4c[nH]c(=O)cc4C5)cc3Cl)cn2)C1
TARGET_OF_ASSAY: human recombinant GPR65 (Homo sapiens, UniProt Q8IYL9)
VALUE: < 500 nM

MOLECULE: O=C(Nc1cc(Cl)c(-c2ccc(O[C@@H]3CCN(CC(F)(F)F)C3)nc2)cc1F)N1[C@H]2CC[C@@H]1c1c[nH]c(=O)cc1C2 (single isomer, unassigned)
TARGET_OF_ASSAY: human recombinant GPR65 (Homo sapiens, UniProt Q8IYL9)
VALUE: < 500 nM

MOLECULE: O=C(Nc1cc(Cl)c(-c2ccc(OC[C@@H]3CCOC3)nc2)cc1F)N1[C@H]2CC[C@@H]1c1c[nH]c(=O)cc1C2 (single isomer, unassigned)
TARGET_OF_ASSAY: human recombinant GPR65 (Homo sapiens, UniProt Q8IYL9)
VALUE: < 500 nM

For the molecule O=C(Nc1cc(Cl)c(-c2ccc(OC[C@H]3CCOC3)nc2)cc1F)N1[C@H]2CC[C@@H]1c1c[nH]c(=O)cc1C2 (single isomer, unassigned) , the measured IC50 on human recombinant GPR65 (Homo sapiens, UniProt Q8IYL9) was < 500 nM

For the molecule `O=C(Nc1cc(Cl)c(C(F)(F)F)cc1F)N1[C@H]2CC[C@@H]1c1ccncc1C2` , the measured IC50 on human recombinant GPR65 (Homo sapiens, UniProt Q8IYL9) was < 500 nM

For the molecule CN1CCC(Oc2ccc(-c3cc(F)c(NC(=O)N4[C@H]5CC[C@@H]4c4c[nH]c(=O)cc4C5)cc3Cl)cn2)C1 (stereo partly shown) , the measured IC50 on human recombinant GPR65 (Homo sapiens, UniProt Q8IYL9) was 500 to 5000 nM

For the molecule `O=C(Nc1cc(Cl)c(-c2ccc3nonc3c2)cn1)N1[C@@H]2CC[C@H]1[C@@H](F)c1c2ccnc1F` , the measured IC50 on human recombinant GPR65 (Homo sapiens, UniProt Q8IYL9) was < 500 nM

For the molecule O=C(Nc1cc(Cl)c(-c2ccc(OCC3CCOC3)nc2)cc1F)N1[C@H]2CC[C@@H]1c1c[nH]c(=O)cc1C2 (stereo partly shown) , the measured IC50 on human recombinant GPR65 (Homo sapiens, UniProt Q8IYL9) was < 500 nM
